system: Aspergillus niger; experiment: Growth inhibition of Aspergillus niger at 4 mg/ml after 7 days by poisoned-food technique; type: functional; settings: 168 h, read-out: GI
endpoint: inhibition of growth at 4000 µg/mL (%)
Form entry: value (%) — number only.

smiles	endpoint	units	measured_value
CC(=O)/C(Br)=C/c1cn(-c2ccc([N+](=O)[O-])cc2)nc1-c1ccc(F)cc1	inhibition of growth at 4000 µg/mL	%	48.8
CC(=O)/C(Br)=C/c1cn(-c2ccccc2)nc1-c1ccc(Cl)cc1	inhibition of growth at 4000 µg/mL	%	50
COc1ccc(-c2nn(-c3ccccc3)cc2-c2cc(C)nn2-c2ccccc2)cc1	inhibition of growth at 4000 µg/mL	%	41.1
Cc1cc(-c2cn(-c3ccccc3)nc2-c2ccc(Cl)cc2)n(-c2ccccc2)n1	inhibition of growth at 4000 µg/mL	%	48.8
Cc1cc(-c2cn(-c3ccc([N+](=O)[O-])cc3)nc2-c2ccc(F)cc2)n(-c2ccccc2)n1	inhibition of growth at 4000 µg/mL	%	44.4

I would be grateful if you could share the reported inhibition of growth at 4000 µg/mL for "CC(=O)/C(Br)=C/c1cn(-c2ccccc2)nc1-c1ccccc1" .
51.1

Please give the measured inhibition of growth at 4000 µg/mL for this compound: "COc1ccc(-c2nn(-c3ccc([N+](=O)[O-])cc3)cc2-c2cc(C)nn2-c2ccccc2)cc1"
46.6

Name the reported inhibition of growth at 4000 µg/mL value associated with the compound "CC(=O)/C(Br)=C/c1cn(-c2ccccc2)nc1-c1ccc(F)cc1"
53.3

Need inhibition of growth at 4000 µg/mL, item "OC(Cn1cncn1)(Cn1cncn1)c1ccc(F)cc1F"
81.1

// inhibition of growth at 4000 µg/mL lookup, key: "COc1ccc(-c2nn(-c3ccc([N+](=O)[O-])cc3)cc2/C=C(\Br)C(C)=O)cc1"
45.5

If you can, please state the reported inhibition of growth at 4000 µg/mL value of "CC(=O)/C(Br)=C/c1cn(-c2ccccc2)nc1-c1ccc([N+](=O)[O-])cc1" .
48.8

Could you share which inhibition of growth at 4000 µg/mL value was measured for "COc1ccc(-c2nn(-c3ccccc3)cc2/C=C(\Br)C(C)=O)cc1" ?
45.5

###

Reported zone of inhibition at 2000 µg/mL values for the following compounds.
system: Bacillus subtilis; test: Antibacterial activity against Bacillus subtilis MTCC 121 at 2 mg/ml after 24 hr by agar well diffusion method; assay type: functional; conditions: MTCC 121, 24 h, read-out: DIZ
Field: numeric (mm). Do not append units.

// below: answered compounds
compound	units	zone of inhibition at 2000 µg/mL
Cc1cc(-c2cn(-c3ccccc3)nc2-c2ccc(F)cc2)n(-c2ccccc2)n1	mm	16.3
CC(=O)/C(Br)=C/c1cn(-c2ccccc2)nc1-c1ccc([N+](=O)[O-])cc1	mm	17.6
O=C(O)c1cn(C2CC2)c2cc(N3CCNCC3)c(F)cc2c1=O [CIPROFLOXACIN]	mm	24
COc1ccc(-c2nn(-c3ccc([N+](=O)[O-])cc3)cc2/C=C(\Br)C(C)=O)cc1	mm	16

Moving on to another compound below.
Recorded zone of inhibition at 2000 µg/mL of "Cc1cc(-c2cn(-c3ccccc3)nc2-c2ccc(Cl)cc2)n(-c2ccccc2)n1" , please.
16.3

###

MIC by entry:
system: Staphylococcus aureus; test: Antibacterial activity against Staphylococcus aureus MTCC 96 after 24 hr by macrodilution tube method; type: functional; details: MTCC 96, 24 h

Example cases with answers are listed next.
compound	MIC
COc1ccc(-c2nn(-c3ccccc3)cc2/C=C(\Br)C(C)=O)cc1	128 mg/L
CC(=O)/C(Br)=C/c1cn(-c2ccccc2)nc1-c1ccc([N+](=O)[O-])cc1	128 mg/L
Cc1cc(-c2cn(-c3ccccc3)nc2-c2ccccc2)n(-c2ccccc2)n1	128 mg/L
CC(=O)/C(Br)=C/c1cn(-c2ccccc2)nc1-c1ccc(C)cc1	64 mg/L
COc1ccc(-c2nn(-c3ccccc3)cc2-c2cc(C)nn2-c2ccccc2)cc1	128 mg/L
Cc1cc(-c2cn(-c3ccc([N+](=O)[O-])cc3)nc2-c2ccc(F)cc2)n(-c2ccccc2)n1	256 mg/L
CC(=O)/C(Br)=C/c1cn(-c2ccc([N+](=O)[O-])cc2)nc1-c1ccccc1	64 mg/L
CC(=O)/C(Br)=C/c1cn(-c2ccccc2)nc1-c1ccc(Cl)cc1	256 mg/L

Reported MIC for "Cc1cc(-c2cn(-c3ccccc3)nc2-c2ccc([N+](=O)[O-])cc2)n(-c2ccccc2)n1" : what is it?
64 mg/L

Data request, read-out MIC, for O=C(O)c1cn(C2CC2)c2cc(N3CCNCC3)c(F)cc2c1=O [CIPROFLOXACIN]
5 mg/L

###

system: Aspergillus niger; test: Growth inhibition of Aspergillus niger at 4 mg/ml after 7 days by poisoned-food technique; format: functional; details: 168 h, read-out: GI
endpoint: inhibition of growth at 4000 µg/mL (%)
Entry rule: numbers only, all in %.

Record excerpt, results attached:
smiles	inhibition of growth at 4000 µg/mL / %
CC(=O)/C(Br)=C/c1cn(-c2ccccc2)nc1-c1ccc(C)cc1	51.1
Cc1cc(-c2cn(-c3ccccc3)nc2-c2ccccc2)n(-c2ccccc2)n1	44.4
CC(=O)/C(Br)=C/c1cn(-c2ccccc2)nc1-c1ccc(Br)cc1	55.5
Cc1cc(-c2cn(-c3ccccc3)nc2-c2ccc(Br)cc2)n(-c2ccccc2)n1	55.5

Let's switch to this compound now.
// inhibition of growth at 4000 µg/mL lookup, key: "Cc1cc(-c2cn(-c3ccccc3)nc2-c2ccc(F)cc2)n(-c2ccccc2)n1"
43.3

###

system: Aspergillus niger; experiment: Growth inhibition of Aspergillus niger at 4 mg/ml after 7 days by poisoned-food technique; format: functional; conditions: 168 h, read-out: GI
Let's look at some molecules and their measured inhibition of growth at 4000 µg/mL.
The reply should be a number in %, with the unit left off.

Which inhibition of growth at 4000 µg/mL is reported for this molecule? "Cc1ccc(-c2nn(-c3ccccc3)cc2-c2cc(C)nn2-c2ccccc2)cc1"
44.4

###

This section presents compounds with their documented inhibition of growth at 4000 µg/mL values.
system: Aspergillus niger; experiment: Growth inhibition of Aspergillus niger at 4 mg/ml after 7 days by poisoned-food technique; format: functional; conditions: 168 h, read-out: GI
Field format: number, assumed %, no unit text.

Before answering, review these 2 worked examples.
smiles	inhibition of growth at 4000 µg/mL (%)
Cc1cc(-c2cn(-c3ccccc3)nc2-c2ccc([N+](=O)[O-])cc2)n(-c2ccccc2)n1	51.1
Cc1cc(-c2cn(-c3ccc([N+](=O)[O-])cc3)nc2-c2ccccc2)n(-c2ccccc2)n1	43.3

Attention now shifts to the item below.
So what's the measured inhibition of growth at 4000 µg/mL for this one? "CC(=O)/C(Br)=C/c1cn(-c2ccc([N+](=O)[O-])cc2)nc1-c1ccccc1"
51.1

These entries and their values trace back to ChEMBL document CHEMBL3044634.
